- target: T1, A1/A3-C1-C2 heterodimer of factor VIII, plasma-derived (human, UniProt P00451 20-391; P00451 1709-2351)
- T1 sequence 1: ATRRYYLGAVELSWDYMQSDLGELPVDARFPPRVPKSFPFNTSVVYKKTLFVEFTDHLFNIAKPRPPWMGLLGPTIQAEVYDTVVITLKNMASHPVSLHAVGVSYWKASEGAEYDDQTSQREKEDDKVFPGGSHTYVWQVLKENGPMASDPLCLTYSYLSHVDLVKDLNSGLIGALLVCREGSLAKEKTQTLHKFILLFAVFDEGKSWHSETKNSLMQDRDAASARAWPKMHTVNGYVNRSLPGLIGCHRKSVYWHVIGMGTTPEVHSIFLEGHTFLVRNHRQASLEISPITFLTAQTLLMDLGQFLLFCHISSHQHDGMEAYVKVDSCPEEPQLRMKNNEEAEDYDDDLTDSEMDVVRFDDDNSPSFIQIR
- T1 sequence 2: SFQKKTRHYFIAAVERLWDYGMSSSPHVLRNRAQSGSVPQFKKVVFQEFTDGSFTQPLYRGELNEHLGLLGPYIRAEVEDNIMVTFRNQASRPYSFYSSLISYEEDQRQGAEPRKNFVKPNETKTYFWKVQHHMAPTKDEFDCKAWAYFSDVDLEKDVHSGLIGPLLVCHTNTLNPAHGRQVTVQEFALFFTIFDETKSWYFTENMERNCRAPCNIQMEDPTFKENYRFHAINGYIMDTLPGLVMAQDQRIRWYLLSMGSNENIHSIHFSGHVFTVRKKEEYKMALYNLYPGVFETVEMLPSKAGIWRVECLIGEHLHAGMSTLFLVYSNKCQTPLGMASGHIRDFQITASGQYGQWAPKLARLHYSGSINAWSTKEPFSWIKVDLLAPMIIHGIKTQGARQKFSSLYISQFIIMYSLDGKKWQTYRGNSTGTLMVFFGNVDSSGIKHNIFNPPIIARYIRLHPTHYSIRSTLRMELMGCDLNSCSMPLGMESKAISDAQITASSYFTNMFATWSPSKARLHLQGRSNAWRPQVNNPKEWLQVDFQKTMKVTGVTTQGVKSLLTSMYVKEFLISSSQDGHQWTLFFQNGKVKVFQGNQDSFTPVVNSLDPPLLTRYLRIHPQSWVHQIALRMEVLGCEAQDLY
- test-method-notes: cell-based or functional assay
endpoint-name: Activity of reconstituted FVIIIa (% of wt activity)

binder	result
recombinant A2 mutant #9 (Ser-488 to Ala) (other, hx-A2 form from Sf9 cells) SGAKKHPKTWVHYIAAEEEDWDYAPLVLAPDDRSYKSQYLNNGPQRIGRKYKKVRFMAYTDETFKTREAIQHESGILGPLLYGEVGDTLLIIFKNQASRPYNIYPHGITDVRPLYARRLPKGVKHLKDFPILPGEIFKYKWTVTVEDGPTKSDPRCLTRYYSSFVNMERDLASGLIGPLLICYKESVDQRGNQIMSDKRNVILFSVFDENRSWYLTENIQRFLPNPAGVQLEDPEFQASNIMHSINGYVFDSLQLSVCLHEVAYWYILSIGAQTDFLSVFFSGYTFKHKMVYEDTLTLFPFSGETVFMSMENPGLWILGCHNSDFRNRGMTALLKVSSCDKNTGDYYEDSYEDISAYLLSKNNAIEPR	232 % of wt activity
recombinant A2 mutant #17 (Lys-510 to Ala) (other, hx-A2 form from Sf9 cells; not shown: N-terminal hx leader (6xHis tag, vector-derived linker, factor Xa site)) SGAKKHPKTWVHYIAAEEEDWDYAPLVLAPDDRSYKSQYLNNGPQRIGRKYKKVRFMAYTDETFKTREAIQHESGILGPLLYGEVGDTLLIIFKNQASRPYNIYPHGITDVRPLYSRRLPKGVKHLKDFPILPGEIFAYKWTVTVEDGPTKSDPRCLTRYYSSFVNMERDLASGLIGPLLICYKESVDQRGNQIMSDKRNVILFSVFDENRSWYLTENIQRFLPNPAGVQLEDPEFQASNIMHSINGYVFDSLQLSVCLHEVAYWYILSIGAQTDFLSVFFSGYTFKHKMVYEDTLTLFPFSGETVFMSMENPGLWILGCHNSDFRNRGMTALLKVSSCDKNTGDYYEDSYEDISAYLLSKNNAIEPR	91.5 % of wt activity
recombinant A2 mutant #18 (Lys-512 to Ala) (other, hx-A2 form from Sf9 cells; not shown: N-terminal hx leader (6xHis tag, vector-derived linker, factor Xa site)) SGAKKHPKTWVHYIAAEEEDWDYAPLVLAPDDRSYKSQYLNNGPQRIGRKYKKVRFMAYTDETFKTREAIQHESGILGPLLYGEVGDTLLIIFKNQASRPYNIYPHGITDVRPLYSRRLPKGVKHLKDFPILPGEIFKYAWTVTVEDGPTKSDPRCLTRYYSSFVNMERDLASGLIGPLLICYKESVDQRGNQIMSDKRNVILFSVFDENRSWYLTENIQRFLPNPAGVQLEDPEFQASNIMHSINGYVFDSLQLSVCLHEVAYWYILSIGAQTDFLSVFFSGYTFKHKMVYEDTLTLFPFSGETVFMSMENPGLWILGCHNSDFRNRGMTALLKVSSCDKNTGDYYEDSYEDISAYLLSKNNAIEPR	219 % of wt activity
recombinant A2 mutant #19 (Lys-523 to Ala) (other, hx-A2 form from Sf9 cells; not shown: N-terminal hx leader (6xHis tag, vector-derived linker, factor Xa site)) SGAKKHPKTWVHYIAAEEEDWDYAPLVLAPDDRSYKSQYLNNGPQRIGRKYKKVRFMAYTDETFKTREAIQHESGILGPLLYGEVGDTLLIIFKNQASRPYNIYPHGITDVRPLYSRRLPKGVKHLKDFPILPGEIFKYKWTVTVEDGPTASDPRCLTRYYSSFVNMERDLASGLIGPLLICYKESVDQRGNQIMSDKRNVILFSVFDENRSWYLTENIQRFLPNPAGVQLEDPEFQASNIMHSINGYVFDSLQLSVCLHEVAYWYILSIGAQTDFLSVFFSGYTFKHKMVYEDTLTLFPFSGETVFMSMENPGLWILGCHNSDFRNRGMTALLKVSSCDKNTGDYYEDSYEDISAYLLSKNNAIEPR	390 % of wt activity
